Tested on: NCI-H460 lung
assay name: NCI-60 one-dose screen, 48 h
test conditions: 10 µM unless noted
The panel holds about 83,000 compounds, 20% with a hit somewhere; the sample as a whole holds those more often. Active and inactive are the calls of the source. Rule for the calls: active = growth percent below 10; inactive = the rest.
Labels: t = active, f = inactive

# compound, label value
measured = [
    ("c1ccc(Nc2ccccn2)cc1", "f"),
    ("N#Cc1c2ncccc2c2nnc3cc(Cl)c(Cl)cc3n12", "f"),
    ("CCCCCCCCc1ccc(CCC(N)(CO)CO)cc1", "t"),
    ("O=C(/C=C1\\C(=O)N(Cc2ccc([N+](=O)[O-])cc2)c2ccccc21)c1ccc(OCCN2CCCC2)cc1", "f"),
    ("C/C(=C\\c1ccc2ccccc2c1)[N+](=O)[O-]", "f"),
    ("COc1ccc2c(c1)cn1c3ccc(O)cc3[nH]c(=O)c21", "t"),
    ("N=C(N)c1ccc(-c2ccc(-c3cc(Cl)cc(Cl)c3)s2)cc1", "t"),
    ("O=C(N/N=C\\c1ccc(Cl)cc1)C(=O)N/N=C\\c1ccc(Cl)cc1", "f"),
    ("CCOC(=O)c1c(C)oc2ncnc(Nc3ccc(C(=O)NCCc4ccccc4)cc3)c12", "f"),
    ("COC(=O)[C@H](Cc1cn(C)cn1)NC(=O)[C@@H](NC(=O)Nc1cc(C(F)(F)F)cc(C(F)(F)F)c1)C(C)(C)C", "t"),
    ("CCNc1nnc(COc2ccc(CNC(=O)CCCC/C=C/C(C)C)cc2OC)o1", "f"),
    ("CCN(CC)CCCC(C)Nc1c(C)cnc2cc(Cl)c(C)cc12 (configuration not stated)", "f"),
    ("C[C@H]1C[C@@H](n2cnc3c(N)nccc32)[C@H](O)[C@@H]1O", "f"),
    ("CC(=O)NNC(=O)c1sc(NC(C)=O)nc1C", "f"),
    ("CC#Cc1nc(Nc2cc(C)[nH]n2)c2ccccc2n1", "t"),
    ("CC1(C)NCCC[C@]2(C)[C@H]3CC=C4[C@@H]5C[C@](C)(COC(=O)c6ccccc6C(=O)O)CC[C@]5(C)CC[C@@]4(C)[C@]3(C)CC[C@@H]12", "f"),
    ("CCOC(=O)c1csc(-c2ccc(COC(=O)c3ccccc3)o2)n1", "f"),
    ("CC(=O)N1CCN(CCNC(=O)n2cc(-c3ccncc3)c(-c3cc(O)cc(Cl)c3)n2)CC1", "f"),
    ("CCCCCCCCCCCCCCCCNC(=S)N/N=C/c1ccc(OC)cc1", "f"),
    ("COc1ccc(Cn2cc3c(c2)-c2oncc2CC3)cc1OC", "t"),
    ("Oc1ccccc1/C=N/N=C\\c1ccccc1Cl", "f"),
    ("COc1cccc(-c2cc(-c3cc4ccccc4oc3=O)nc(N)n2)c1", "f"),
    ("C[C@]12CC[C@H]3[C@@H](CC[C@H]4C[C@@H](O)CC[C@@]43C)[C@@H]1CC(=O)C2", "f"),
    ("C=C[C@]1(C)C=C2C(=O)[C@@]3(O)OC[C@@]4(CCCC(C)(C)C43O)C2(O)C(O)C1 (some centres not stated)", "f"),
    ("CNCCCNCCCCNCCCN1C(=O)c2ccc3c4c(ccc(c24)C1=O)C(=O)N(CCCNCc1ccccc1OC)C3=O", "f"),
    ("Clc1ccc(N/N=C/c2ccccn2)nc1", "t"),
    ("O=C(O)c1occ(Cl)c1Cl", "f"),
    ("COc1ccc(/C=C(/C(=O)N2CCCCC2)c2cc(OC)c(OC)c(OC)c2)cc1", "f"),
    ("CCOC(=O)C(C)C(C)(O)c1ccccc1 (configuration not stated)", "f"),
    ("COC(=O)c1ccc2[nH]c(O)c(C(=Nc3ccc(N(C)C(=O)CN4CCN(C)CC4)cc3)c3ccc4c(c3)OCO4)c2c1", "t"),
    ("COc1ccc(C(=O)NCCNc2nccc(-c3c(-c4ccc(F)cc4)nc4sccn34)n2)cc1", "f"),
    ("COc1ccc(C2CC(=O)c3c(O)cc(OC4OC(COC5OC(C)C(O)C(O)C5O)C(O)C(O)C4O)cc3O2)cc1O (configuration not stated)", "f"),
    ("S=C(N/N=C/c1cc(Cl)cc(Cl)c1)NC12CC3CC(CC(C3)C1)C2", "f"),
    ("CC1=C(C)C(=O)C(C(C)C2=C(C)C(=O)C(C)=C(C)C2=O)=C(C)C1=O", "f"),
    ("CCOc1ccc2nc3ccc(Cl)cc3nc2c1", "f"),
    ("NCCCOc1cc(Cl)ccc1NC(=O)c1cc2ccccc2cc1OCCCN", "t"),
    ("CCOC(=O)c1ccc2n1CCCc1cnc(NC(C)=O)nc1-2", "f"),
    ("N=c1c2c(=O)n3c(nc2nc2sc4ccc(Cl)cc4n12)-c1ccccc1Sc1ccccc1-3", "f"),
    ("CCOC(=O)c1c2c(cn1Cc1ccccc1)-c1oncc1CC2", "f"),
    ("COc1ccc(/C=C/C(=O)/C=C/c2cc3ccccc3[nH]c2=O)cc1", "f"),
    ("CCCCCCC(=O)C(C)C", "f"),
    ("Cc1nc2c(nnn2-c2ccccc2)c2nc(-c3ccccc3)oc(=O)c12", "f"),
]

* * *

Tested on: IGROV1 ovarian
assay name: NCI-60 one-dose screen, 48 h (100 = growth as untreated, 0 = no growth, -100 = all killed)
test conditions: 10 µM unless noted
Compounds without any hit were thinned out: in the full panel of roughly 83,000, 20% have a hit.
Collected growth values appear next to each entry.

# molecule, units, growth
measured = [
    ("C/C(=N\\Nc1ccc(Cl)cn1)c1ccc2ccccc2n1", "%", 16.6),
    ("NC(CSC(c1ccccc1)(c1ccccc1)c1ccccc1)C(=O)NCC(=O)O (stereo not given)", "%", 72.6),
    ("COc1ccc(/C=C2\\CCCC3=C2N=C2SC=NN2C3c2ccc(OC)c(OC)c2)cc1OC (stereo not given)", "%", 47.8),
    ("CNCCCNCCCCNCCCN1C(=O)c2ccc3c4c(ccc(c24)C1=O)C(=O)N(CCCNCc1ccccc1OC)C3=O", "%", 12.7),
    ("BrCCCOc1ccc(Oc2ccc(OCCCBr)cc2)cc1", "%", 97.7),
]

* * *

Tested on: HCT-15 colon
assay name: NCI-60 one-dose screen, 48 h
test conditions: 10 µM unless noted
The panel holds about 83,000 compounds, 20% with a hit somewhere; the sample as a whole holds those more often. Active and inactive are the calls of the source. The calls were made as follows: active = growth percent below 10; inactive = the rest.
Labels: yes (1) (active), no (0) (inactive)

# compound, label value
measured = [
    ("CC(O)c1cc[cH-]c1.[Fe+2].c1cc[cH-]c1 (centres undefined)", "no (0)"),
    ("COC(=O)/C(Br)=C/c1c[nH]c2ccc(Br)cc12", "no (0)"),
    ("c1cc[c]([Bi]([c]2ccccc2)[c]2ccccc2)cc1", "no (0)"),
    ("CC(C)(C)C(=O)OCOP(=O)(OCOC(=O)C(C)(C)C)C1CC(O)N(O)C1=O (centres undefined)", "no (0)"),
    ("Cc1c(O)c(N=Nc2ccc(C(=O)O)c(O)c2)c2ccccc2c1O", "no (0)"),
    ("CCN(CC)C(=O)C1(C)CCCC2(C)c3cc(OC(C)=O)ccc3CCC12 (centres undefined)", "no (0)"),
    ("COc1cc(NC(C)CCCN)c2nc(C)ccc2c1OC (centres undefined)", "no (0)"),
    ("O=C(Nc1ccc(-n2cc(-c3ccncc3)c(-c3ccc(Cl)c(O)c3)n2)cc1)Nc1ccc(Cl)c(C(F)(F)F)c1", "yes (1)"),
    ("CN1CCN(Cc2ccc(NC(=O)c3cncc(C#Cc4c(N)ncc5ccc(F)cc45)c3)cc2C(F)(F)F)CC1", "no (0)"),
    ("O=C(Nc1ccccc1)Nc1ccc(Nc2ncnc3sc4c(c23)CCCC4)cc1", "no (0)"),
    ("COc1cc(/C=C/C(=O)c2ccc(F)cc2)ccc1OCCCCOc1cc2c(cc1OC)C(=O)N1CCCC1C=N2 (centres undefined)", "yes (1)"),
    ("O=C(OCC1CC2(Cl)C(Cl)=C(Cl)C1(Cl)C2(Cl)Cl)C1C(C(=O)OCC2CC3(Cl)C(Cl)=C(Cl)C2(Cl)C3(Cl)Cl)C2(Cl)C(Cl)=C(Cl)C1(Cl)C2(Cl)Cl (centres undefined)", "no (0)"),
    ("C=CC1CN2CCC1CC2C(O)c1ccnc2ccc(OC)cc12 (centres undefined)", "no (0)"),
    ("COc1ccc(-c2nc(SCC(C)C)nc(Nc3ccc(C)cc3)c2C#N)cc1", "no (0)"),
    ("CCOC1=C(Cl)C(=O)C(OCC)=C(Cl)C1=O", "no (0)"),
    ("CCCCN(CCCC)c1ccc(C(=O)O)cc1", "no (0)"),
    ("Cc1nc(NC(=S)Nc2ccc(F)cc2)sc1C(=O)NNC(=S)Nc1ccc(F)cc1", "no (0)"),
    ("CN1CCN(Cc2ccc(NC(=O)c3ccc(C#Cc4c(N)ncc5ccc(F)cc45)cc3)cc2C(F)(F)F)CC1", "yes (1)"),
    ("CCn1cnc(C[C@H](NC(=O)[C@@H](NC(=O)Nc2cc(C(F)(F)F)cc(C(F)(F)F)c2)C(C)C)C(=O)OC)c1", "yes (1)"),
    ("O=C1C(=O)c2ccccc2C(O)=C1CCCc1ccc(Oc2ccccc2)cc1", "no (0)"),
    ("CC(=O)N(N=O)c1ccc([N+](=O)[O-])cc1Cl", "no (0)"),
    ("O=C(Nc1cccc(Cn2c(=O)[nH]c3ccc(Oc4ncccn4)cc3c2=O)c1)c1ccc(Cl)cc1", "no (0)"),
    ("C#CCCCCCCC[C@@H]1OC(=O)[C@H]([C@@H](C)CC)NC(=O)[C@H]([C@@H](C)CC)NC(=O)CC(=O)[C@@H]1C", "no (0)"),
    ("CC(C)CSc1nc(-c2ccc(F)cc2)c(C#N)c(N2CCCCC2)n1", "no (0)"),
    ("CC#Cc1nc(Nc2cc(C)[nH]n2)c2ccccc2n1", "yes (1)"),
    ("COc1ccc2cc(C(C)C(=O)Nc3ccc(S(=O)(=O)Nc4cc(C)on4)cc3)ccc2c1 (centres undefined)", "no (0)"),
    ("COc1cc2ncnc(-n3ncc4cc(NC(=O)Nc5ccc(Cl)c(C)c5)ccc43)c2cc1OC", "no (0)"),
    ("Cn1c2ccccc2c2ccccc21", "no (0)"),
    ("CC(=O)OC1CC2C3CCC4C[C@@H](NC(=O)C=C(C)C)CC[C@]4(C)C3CC[C@]2(C)[C@H]1C(C)N(C)C (some centres undefined)", "yes (1)"),
    ("CC([C@H]1CC=C2C3CCC4=C[C@@H](N(C)C)CC[C@]4(C)C3CC[C@@]21C)N(C)C (some centres undefined)", "yes (1)"),
    ("COc1cc(-c2nn(-c3ccc(NC(=O)Nc4ccc(Cl)c(Cl)c4)cc3)cc2-c2ccncc2)ccc1Cl", "no (0)"),
    ("CC(=O)Nc1nc(C)c(C(=O)NNS(=O)(=O)c2ccccc2)s1", "no (0)"),
    ("COc1cccc(CNC(=O)c2cccc(C3CC(=O)c4c(cc(OC)c(OC)c4OC)O3)c2)c1 (centres undefined)", "no (0)"),
    ("N=C(N)c1ccc(-c2ccc(-c3cc(Cl)cc(Cl)c3)s2)cc1", "yes (1)"),
    ("CCCCCCCCCCCCOC(=O)/C=C\\C(=O)NC(N)=O", "no (0)"),
    ("COc1cc(-c2nc(/C=C3/C(=O)Nc4ccccc43)c3ccccn23)cc(OC)c1OC", "no (0)"),
    ("OC(c1ccccc1)(c1ccccc1)C(F)(F)F", "no (0)"),
    ("Cc1ncc(C(=O)Nc2ccc(CN3CCN(C)CC3)c(C(F)(F)F)c2)cc1C#Cc1cnc(NC2CC2)c2ncccc12", "yes (1)"),
    ("BrCCCOc1ccc(Oc2ccc(OCCCBr)cc2)cc1", "no (0)"),
]
